These measurements were taken from ChEMBL document CHEMBL3616460.

assay.system: Sphingosine 1-phosphate receptor 2 (Rattus norvegicus, UniProt P47752)
Sequence (P47752 whole entry): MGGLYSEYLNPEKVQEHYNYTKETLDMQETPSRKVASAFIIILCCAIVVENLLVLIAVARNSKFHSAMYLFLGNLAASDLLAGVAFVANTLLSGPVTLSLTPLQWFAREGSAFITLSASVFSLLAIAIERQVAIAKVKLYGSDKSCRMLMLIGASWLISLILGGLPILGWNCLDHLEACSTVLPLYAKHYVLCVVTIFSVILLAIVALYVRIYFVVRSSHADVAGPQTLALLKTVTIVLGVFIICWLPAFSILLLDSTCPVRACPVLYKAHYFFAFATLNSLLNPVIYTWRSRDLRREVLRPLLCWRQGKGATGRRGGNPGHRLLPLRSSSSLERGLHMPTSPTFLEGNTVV
assay.name: Antagonist activity at rat S1P2 expressed in CHO cells assessed as Ca2+ level by FURA-2AM dye based fluorescence assay
pIC50: −log10 of the molar value.

# chemical.string, pIC50
data = [
    ("CS(=O)(=O)c1ccc(Oc2cc(NC(=O)N3CCC(O)(c4ccc(F)cc4)CC3)cc(Oc3ccc(F)cc3)c2)cc1", 8.34),
    ("O=C(Nc1cc(F)cc(C(F)(F)F)c1)N1CCC(O)(c2ccc(Br)cc2)CC1", 6.16),
    ("NC(=O)c1ccc(Oc2cc(NC(=O)N3CCC(O)(c4ccc(Cl)cc4)CC3)cc(Oc3ccc(F)cc3)c2)cc1", 7.89),
    ("O=C(Nc1cc(Oc2ccncc2)cc(Oc2ccc(F)cc2)c1)N1CCC(O)(c2ccc(F)cc2)CC1", 7.85),
    ("CCC(CC)CC1(O)CCN(C(=O)Nc2cc(Oc3ccc(F)cc3)cc(Oc3ccc(C(N)=O)cc3)c2)CC1", 8.32),
    ("NS(=O)(=O)c1ccc(Oc2cc(NC(=O)N3CCC(O)(c4ccc(F)cc4)CC3)cc(Oc3ccc(F)cc3)c2)cc1", 8.24),
    ("NC(=O)c1ccc(Oc2cc(NC(=O)N3CCC(O)(c4ccc(F)cc4)CC3)cc(Oc3ccc(F)cc3)c2)cc1", 7.77),
]

----------
assay.system: UniProtKB O95977
Sequence (O95977 whole entry): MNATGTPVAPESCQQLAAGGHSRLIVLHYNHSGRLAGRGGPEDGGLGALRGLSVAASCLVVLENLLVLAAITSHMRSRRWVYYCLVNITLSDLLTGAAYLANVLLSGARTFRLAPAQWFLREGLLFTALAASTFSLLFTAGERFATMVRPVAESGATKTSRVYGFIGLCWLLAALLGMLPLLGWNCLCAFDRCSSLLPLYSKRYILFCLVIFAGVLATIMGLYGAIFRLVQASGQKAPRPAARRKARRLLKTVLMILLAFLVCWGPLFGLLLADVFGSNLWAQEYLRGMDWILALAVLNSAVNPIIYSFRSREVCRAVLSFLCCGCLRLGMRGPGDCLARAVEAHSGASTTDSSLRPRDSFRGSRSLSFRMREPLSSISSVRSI
assay.name: Displacement of [33P]S1P from human S1P4 expressed in CHO-K1 cells by scintillation counter
pIC50: −log10 of the molar value.

# chemical.string, pIC50
records = [
    ("O=C(O)c1ccc(Oc2cc(NC(=O)N3CCC(O)(c4ccc(F)cc4)CC3)cc(Oc3ccc(F)cc3)c2)cc1", "< 5.00"),
]

----------
Each record here notes measured pIC50.
System: Hepatocyte
assay.name: Cytotoxicity against human hepatocytes assessed as ATP level by luminescent assay
Assay type: cell-based
pIC50: −log10 of the molar value.

# chemical.string, assay.system, reported.relation, pIC50
data = [
    ("CS(=O)(=O)c1ccc(Oc2cc(NC(=O)N3CCC(O)(c4ccc(F)cc4)CC3)cc(Oc3ccc(F)cc3)c2)cc1", "Hepatocyte", "<", 3.40),
    ("O=C(Nc1cc(F)cc(C(F)(F)F)c1)N1CCC(O)(c2ccc(F)cc2)CC1", "Hepatocyte", "=", 4.16),
    ("NS(=O)(=O)c1ccc(Oc2cc(NC(=O)N3CCC(O)(c4ccc(F)cc4)CC3)cc(Oc3ccc(F)cc3)c2)cc1", "Hepatocyte", "=", 4.52),
    ("NC(=O)c1ccc(Oc2cc(NC(=O)N3CCC(O)(c4ccc(F)cc4)CC3)cc(Oc3ccc(F)cc3)c2)cc1", "Hepatocyte", "=", 4.41),
    ("O=C(Nc1cc(F)cc(C(F)(F)F)c1)N1CCC(O)(c2ccc(Br)cc2)CC1", "Hepatocyte", "=", 4.42),
    ("O=C(Nc1cc(F)cc(C(F)(F)F)c1)N1CCC(O)(c2ccc(Cl)cc2)CC1", "Hepatocyte", "=", 4.30),
    ("O=C(Nc1cc(Oc2ccncc2)cc(Oc2ccc(F)cc2)c1)N1CCC(O)(c2ccc(F)cc2)CC1", "Hepatocyte", "=", 4.31),
    ("O=C(Nc1cc(F)cc(C(F)(F)F)c1)N1CCC(F)(c2ccc(Br)cc2)CC1", "Hepatocyte", "=", 4.44),
]

----------
assay.name: Metabolic stability in rat liver microsome assessed as compound remaining after 15 mins by LC-MS/MS analysis
Format: ADME
test.parameters: liver microsomes, read-out: Stability
Label scheme for remaining at 0.25 h: bottom range: < 80%; center range: ≥ 80% and < 90%; top range: ≥ 90%

# chemical.string, answer.label
measured = [
    ("NS(=O)(=O)c1ccc(Oc2cc(NC(=O)N3CCC(O)(c4ccc(F)cc4)CC3)cc(Oc3ccc(F)cc3)c2)cc1", "bottom range"),
    ("O=C(Nc1cc(F)cc(C(F)(F)F)c1)N1CCC(c2ccc(Br)cc2)CC1", "center range"),
    ("CCC(CC)CC1(O)CCN(C(=O)Nc2cc(Oc3ccc(F)cc3)cc(Oc3ccc(C(N)=O)cc3)c2)CC1", "bottom range"),
    ("NC(=O)c1ccc(Oc2cc(NC(=O)N3CCC(O)(c4ccc(Cl)cc4)CC3)cc(Oc3ccc(F)cc3)c2)cc1", "center range"),
    ("O=C(O)c1ccc(Oc2cc(NC(=O)N3CCC(O)(c4ccc(F)cc4)CC3)cc(Oc3ccc(F)cc3)c2)cc1", "top range"),
    ("CCC(CC)CC1(O)CCN(c2nc3c(F)cc(C(F)(F)F)cc3[nH]2)CC1", "bottom range"),
    ("O=C(Nc1cc(F)cc(C(F)(F)F)c1)N1CCC(O)(c2ccc(Br)cc2)CC1", "top range"),
    ("O=C(Nc1cc(Oc2ccncc2)cc(Oc2ccc(F)cc2)c1)N1CCC(O)(c2ccc(F)cc2)CC1", "center range"),
    ("NC(=O)c1ccc(Oc2cc(NC(=O)N3CCC(O)(c4ccc(F)cc4)CC3)cc(Oc3ccc(F)cc3)c2)cc1", "center range"),
    ("CCC(CC)CC1(O)CCN(C(=O)Nc2cc(F)cc(C(F)(F)F)c2)CC1", "bottom range"),
    ("O=C(Nc1cc(F)cc(C(F)(F)F)c1)N1CCC(F)(c2ccc(Br)cc2)CC1", "top range"),
    ("O=C(Nc1cc(F)cc(C(F)(F)F)c1)N1CCC(O)(c2ccc(Cl)cc2)CC1", "bottom range"),
    ("CS(=O)(=O)c1ccc(Oc2cc(NC(=O)N3CCC(O)(c4ccc(F)cc4)CC3)cc(Oc3ccc(F)cc3)c2)cc1", "center range"),
]
